Values compiled from the supplement of paper PMC9170038.

Tested on: K4 kissing-loop RNA reporter;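 further: bound reporter read as fluorescence of individual clusters on recovered sequencing chips by microscopy, with normalized cluster intensities fitted with a binding model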
Assay Overview: apparent KD of K4 kissing-loop reporter; higher = weaker reporter binding
Condition Set: Eterna round: R107; input ligand: none
Please enter true (1) where apparent KD of K4 kissing-loop reporter is greater than or equal to 200 nM, and false (0) where it is lower.

ACGAAAUGCGACUCCUAGUUACACCGGGAAGGAGCGCGGAUAACCGCAGGUAGGUCGCCCGGAAGCCGGACCAGUGAUGUUGGUC [Exclusion Arginine A Gf 27] : false (0)

API: above_or_equal(metric=apparent KD of K4 kissing-loop reporter, cutoff=200 nM) for item AAUAAAAUCACGGCCGCCACUGAUGUUAAUAUUAGCAGUGAUGUUGCUAUGUCGUUUUUCUUUAACAGGACCGGGUGAAUAUUUA [#22 K4 Tryptophan B Exclusion]
false (0)

API: above_or_equal(metric=apparent KD of K4 kissing-loop reporter, cutoff=200 nM) for item GUAGACGUGCCUUCAGUGAUGUUGAAGGAUACCAGAUGUUACCACAUCCCUUGGCAGCCUUGGGAUAACAGUGAGUCGGUAUAUG [Ontierso]
true (1)

API: above_or_equal(metric=apparent KD of K4 kissing-loop reporter, cutoff=200 nM) for item UGAUACCAGACGGCCGCCACUAGGACCGGGAGUGAUGUUCCGAAAAUUAAAUGCUCGGCCGCCACUAGGACCGGGUCUGGUAUCU [TrypBX 28 #DoubleAptamer #SwitchBubble]
true (1)

API: above_or_equal(metric=apparent KD of K4 kissing-loop reporter, cutoff=200 nM) for item CGGGAAUUAGGUAUCGUCGAAAGCAAGAACCGAGGACCGGUACGGCCGCCACUCGCACCAGUGAUGUUGGUACAUUUGGUAUCCG [theeternabot_sameState_KL_Trp_A_31]
false (0)
